Readings of TGI for the listed compounds
system: U251 CNS; test: NCI tumour cell line growth inhibition, 48 h
reported-property: TGI

[[record]]
compound = "N=C(N)/N=C(/C=C/c1ccccc1)CC1OC(=O)c2ccccc21 (stereo unspecified)"
measurement = "> 100 µM"

[[record]]
compound = "C=CC1CC12C(=O)C1OC2(C)C2C(=O)c3ccccc3C(=O)C12 (stereo unspecified)"
measurement = "> 100 µM"

[[record]]
compound = "Cc1cc(Br)c(N2C3=C(CC4=C2CCCC4=O)C(=O)CCC3)c(Br)c1"
measurement = "> 100 µM"

[[record]]
compound = "COc1cc2c(-c3nc4cc(Cl)c(F)cc4s3)cc(=O)oc2c(C)c1OC"
measurement = "2.66 µM"

[[record]]
compound = "Cc1ccc(N=Nc2c(O)c3ccccc3[nH]c2=O)c(S(=O)(=O)N(C)C)c1"
measurement = "> 100 µM"

[[record]]
compound = "Cc1ccc(S(=O)(=O)N(C)C)cc1[N+](=O)[O-]"
measurement = "> 100 µM"

[[record]]
compound = "O=c1/c(=C/c2cccc3ccccc23)sc2nc3ccccc3n12"
measurement = "> 100 µM"

[[record]]
compound = "O=[N+]([O-])c1ccccc1S(=O)c1ccccc1 (stereo unspecified)"
measurement = "> 100 µM"

[[record]]
compound = "O=c1cc2n(c(=O)[nH]1)C1OC(C(O)C1O)[C@@H]2CCO (stereo partly specified)"
measurement = "> 100 µM"

[[record]]
compound = "N#C/C(=C\\c1ccc(CP(=O)(O)O)cc1)C(N)=O"
measurement = "> 100 µM"

[[record]]
compound = "COc1ccc(C(CC(=O)c2ccccc2)C(C(=O)c2ccccc2)C(c2ccc(OC)cc2)C2C(=O)NC(=O)NC2=O)cc1 (stereo unspecified)"
measurement = "51.3 µM"

[[record]]
compound = "CCCOC(=O)N[C@H]1CCc2c(Br)c(OC)c(OC)c(OC)c2-c2ccc(SC)c(=O)cc21"
measurement = "15.1 µM"

[[record]]
compound = "O=C(Cc1ccc(Cl)c(Cl)c1)NCCCN1CCN(CCCN2CCCCC2)CC1"
measurement = "32.5 µM"

[[record]]
compound = "COc1cc(OC)c(-c2cc(=O)c3c(OC)c(OC)c(OC)c(OC)c3o2)cc1OC"
measurement = "> 100 µM"

[[record]]
compound = "C[C@]12CC[C@H](O)CC1=CC[C@@H]1[C@@H]2CC[C@]2(C)C(=O)/C(=C/c3cccc(OCCCn4ccnc4)c3)C[C@@H]12"
measurement = "77.3 µM"

[[record]]
compound = "O=C(Cn1ccnc1[N+](=O)[O-])N(CCO)CCO"
measurement = "> 1250 µM"

